FYI, the data here is from patent US20080058636A1.

Measured Rat binding values are reported for all entries that follow.
biological target: rat collagen (acid soluble, type I, rat tail, Upstate 08-115) (rat) (UniProt P02454); experiment: dried collagen assay, 5 uM each
Sequence (P02454 152-1207, chain 1 of 2): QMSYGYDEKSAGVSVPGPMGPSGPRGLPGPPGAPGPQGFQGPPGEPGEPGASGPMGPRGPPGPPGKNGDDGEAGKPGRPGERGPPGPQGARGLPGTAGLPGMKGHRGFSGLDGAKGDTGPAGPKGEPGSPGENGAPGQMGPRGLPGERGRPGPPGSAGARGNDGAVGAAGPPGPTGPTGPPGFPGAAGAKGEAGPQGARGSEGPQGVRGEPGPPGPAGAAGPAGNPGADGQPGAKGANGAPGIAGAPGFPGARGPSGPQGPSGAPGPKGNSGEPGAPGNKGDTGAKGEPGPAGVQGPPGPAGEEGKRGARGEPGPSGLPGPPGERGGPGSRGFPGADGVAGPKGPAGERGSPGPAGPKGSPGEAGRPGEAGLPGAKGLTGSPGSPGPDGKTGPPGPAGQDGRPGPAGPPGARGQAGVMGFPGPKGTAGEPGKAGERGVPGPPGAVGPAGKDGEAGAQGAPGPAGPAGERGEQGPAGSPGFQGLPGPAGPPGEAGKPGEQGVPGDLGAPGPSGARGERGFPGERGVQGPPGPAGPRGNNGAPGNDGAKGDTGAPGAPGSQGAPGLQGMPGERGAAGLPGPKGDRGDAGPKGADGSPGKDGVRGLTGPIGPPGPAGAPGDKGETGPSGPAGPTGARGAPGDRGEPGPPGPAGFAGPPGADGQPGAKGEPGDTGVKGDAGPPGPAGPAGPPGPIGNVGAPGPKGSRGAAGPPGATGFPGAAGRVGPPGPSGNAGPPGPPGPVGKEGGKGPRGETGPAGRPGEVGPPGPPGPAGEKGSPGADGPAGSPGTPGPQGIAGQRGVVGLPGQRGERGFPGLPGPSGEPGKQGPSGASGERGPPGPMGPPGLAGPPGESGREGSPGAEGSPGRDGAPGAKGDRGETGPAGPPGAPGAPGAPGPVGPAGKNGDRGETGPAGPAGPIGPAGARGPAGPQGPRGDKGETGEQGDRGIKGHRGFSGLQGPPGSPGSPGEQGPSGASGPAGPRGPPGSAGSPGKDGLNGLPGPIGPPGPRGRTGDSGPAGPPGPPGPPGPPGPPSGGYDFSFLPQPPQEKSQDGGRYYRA
Sequence (P02466 86-1125, chain 2 of 2, further chain): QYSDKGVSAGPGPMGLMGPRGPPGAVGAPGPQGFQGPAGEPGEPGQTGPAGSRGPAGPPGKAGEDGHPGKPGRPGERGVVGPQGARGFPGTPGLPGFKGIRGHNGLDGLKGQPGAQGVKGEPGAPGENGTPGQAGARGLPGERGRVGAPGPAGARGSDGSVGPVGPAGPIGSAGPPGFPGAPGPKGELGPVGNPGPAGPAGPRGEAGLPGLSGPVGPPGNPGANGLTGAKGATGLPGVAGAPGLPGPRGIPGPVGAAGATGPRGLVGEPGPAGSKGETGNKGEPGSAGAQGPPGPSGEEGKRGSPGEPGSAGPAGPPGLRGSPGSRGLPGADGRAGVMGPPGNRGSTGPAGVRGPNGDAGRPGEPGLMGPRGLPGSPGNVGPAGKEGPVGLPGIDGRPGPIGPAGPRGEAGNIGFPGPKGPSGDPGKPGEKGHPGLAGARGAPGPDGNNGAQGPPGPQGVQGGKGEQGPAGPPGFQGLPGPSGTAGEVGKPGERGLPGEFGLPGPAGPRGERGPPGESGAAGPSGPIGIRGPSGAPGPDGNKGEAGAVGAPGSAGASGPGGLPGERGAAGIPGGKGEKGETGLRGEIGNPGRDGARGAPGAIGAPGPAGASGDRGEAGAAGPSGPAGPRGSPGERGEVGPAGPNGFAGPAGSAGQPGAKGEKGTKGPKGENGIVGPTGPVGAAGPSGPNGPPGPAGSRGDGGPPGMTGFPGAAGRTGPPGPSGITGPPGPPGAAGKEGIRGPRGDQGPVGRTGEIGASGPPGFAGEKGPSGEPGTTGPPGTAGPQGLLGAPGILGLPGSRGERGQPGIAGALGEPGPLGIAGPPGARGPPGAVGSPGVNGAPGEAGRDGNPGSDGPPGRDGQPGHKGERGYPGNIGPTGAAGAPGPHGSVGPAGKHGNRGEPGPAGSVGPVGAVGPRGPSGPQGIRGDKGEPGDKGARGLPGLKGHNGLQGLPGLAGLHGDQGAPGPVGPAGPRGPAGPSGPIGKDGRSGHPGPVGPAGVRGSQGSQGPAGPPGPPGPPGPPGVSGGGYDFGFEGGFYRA
Note: unit % is implicit; provide only the numeric part.

• DWTCSLDEYTWHCNYE [Compound ID 847] = 7
• GQWHCTTLFPHHYCVYG [Compound ID 928] = 80

Consider the binder GKWHCTTYFPHHVCLYG [Compound ID 965] . State its measured Rat binding.
11

Consider the binder GQWHCTTRFPAHYCLYG [Compound ID 865] . State its measured Rat binding.
17

Consider the binder GKWHCYTKFPHHYCLYGK [Compound ID 995] . State its measured Rat binding.
42
